- testSystem: Adrenergic receptor alpha-1 (Rattus norvegicus, UniProt P15823+P23944+P43140)
- Sequence (P15823 whole entry): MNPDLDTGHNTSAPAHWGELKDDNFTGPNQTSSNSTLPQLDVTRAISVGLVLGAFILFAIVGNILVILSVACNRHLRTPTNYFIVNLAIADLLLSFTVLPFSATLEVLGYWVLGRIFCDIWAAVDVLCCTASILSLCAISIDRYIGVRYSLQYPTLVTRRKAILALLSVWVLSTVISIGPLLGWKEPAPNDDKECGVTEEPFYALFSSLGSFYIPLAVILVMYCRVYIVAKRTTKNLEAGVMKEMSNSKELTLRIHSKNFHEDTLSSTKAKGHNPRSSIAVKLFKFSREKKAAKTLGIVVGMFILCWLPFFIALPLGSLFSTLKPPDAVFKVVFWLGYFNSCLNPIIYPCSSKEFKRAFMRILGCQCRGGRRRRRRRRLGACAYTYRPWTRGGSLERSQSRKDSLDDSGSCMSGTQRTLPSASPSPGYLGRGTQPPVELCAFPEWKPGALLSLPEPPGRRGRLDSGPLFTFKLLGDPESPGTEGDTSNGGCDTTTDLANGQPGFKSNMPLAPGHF
- Sequence (P23944 whole entry): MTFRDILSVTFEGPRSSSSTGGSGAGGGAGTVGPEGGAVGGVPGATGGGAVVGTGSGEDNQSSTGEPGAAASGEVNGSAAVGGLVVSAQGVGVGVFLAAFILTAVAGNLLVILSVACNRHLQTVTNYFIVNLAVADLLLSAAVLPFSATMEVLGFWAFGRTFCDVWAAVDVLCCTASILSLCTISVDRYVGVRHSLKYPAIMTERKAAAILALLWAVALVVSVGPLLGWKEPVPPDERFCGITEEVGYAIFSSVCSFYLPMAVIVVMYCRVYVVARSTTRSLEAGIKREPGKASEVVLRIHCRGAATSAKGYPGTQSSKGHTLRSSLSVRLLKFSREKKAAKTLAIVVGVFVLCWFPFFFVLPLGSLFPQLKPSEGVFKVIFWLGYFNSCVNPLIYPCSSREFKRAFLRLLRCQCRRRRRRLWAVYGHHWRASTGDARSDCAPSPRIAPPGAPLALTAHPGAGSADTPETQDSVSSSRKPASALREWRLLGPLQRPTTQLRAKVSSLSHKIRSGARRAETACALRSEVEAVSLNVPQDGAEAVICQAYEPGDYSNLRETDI
- Sequence (P43140 whole entry): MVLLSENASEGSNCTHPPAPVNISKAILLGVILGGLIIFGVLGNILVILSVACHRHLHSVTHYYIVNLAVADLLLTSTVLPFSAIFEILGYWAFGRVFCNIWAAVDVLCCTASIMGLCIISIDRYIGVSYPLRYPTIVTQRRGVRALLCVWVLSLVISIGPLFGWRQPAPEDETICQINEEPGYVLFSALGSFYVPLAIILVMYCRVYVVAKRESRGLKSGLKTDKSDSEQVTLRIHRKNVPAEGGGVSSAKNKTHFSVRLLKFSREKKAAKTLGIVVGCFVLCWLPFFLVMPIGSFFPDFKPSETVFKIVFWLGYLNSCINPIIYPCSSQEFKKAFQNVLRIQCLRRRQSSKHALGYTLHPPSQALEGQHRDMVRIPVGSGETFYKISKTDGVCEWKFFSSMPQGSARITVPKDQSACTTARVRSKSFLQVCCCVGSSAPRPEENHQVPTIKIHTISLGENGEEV
- protocolDetails: Binding affinity towards Alpha-1 adrenergic receptor in rat brain using [3H]prazosin
- Format: tissue-based
Class field: derived from Ki; ranges low band: < 1000 nM; middle band: ≥ 1000 nM and < 3000 nM; high band: ≥ 3000 nM

Would you please look over these solved cases?
C[C@@H]([C@H](O)c1ccc(O)cc1)N1CCC(Cc2ccccc2)CC1 [(R,S)-IFENPRODIL] :: low band
OCCNc1cc(N2CCc3ccccc3C2)nc2ccccc12 :: low band
CC1CN(c2ccncc2)Cc2ccccc21 (centres undefined) :: middle band
OCCNc1ccnc(N2CCc3ccccc3C2)c1 :: middle band

The entry to classify is Clc1cccc2c1CN(c1ccncc1)CC2 ; which class holds it?
high band

Consider c1ccc2c(c1)CCN(c1ccncc1)C2 . To which Ki class does it belong?
high band

Form field 'band' for Clc1cccc2c1CCN(c1ccncc1)C2
middle band

Tag the class for c1ccc2c(c1)CCN(c1ccnc3ccccc13)C2
high band

State the class of the molecule shown: Clc1ccc2c(c1)CN(c1ccncc1)CC2
middle band
